# System: INSR;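 further: KINOMEscan scanMAX binding as percent activity remaining versus control; lower means stronger binding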
# test_settings: Compound Concentration (nM):1000
endpoint: Percent Control (%)
# unit: % | format: bare number

The following compounds have reported results that may help.
> print(dat)
                                   compound  value
1  C/C(Nc1ccc(S(N)(=O)=O)cc1)=C1/C(=O)Nc2ccccc21 [GW335962X]     66
2  COc1ccc2c(-c3ccnc(Nc4cccc(OC(F)(F)F)c4)n3)cnn2n1 [GW810372X]     90
3  CC1=C(C(=O)Nc2ccc3[nH]ncc3c2)C(c2ccc(Cl)c(Cl)c2)CC(=O)N1 (centres unmarked) [GSK299115A]    100

Input: Query Percent Control on INSR for COC(=O)Nc1nc2ccc(Oc3ccc(NC(=O)Nc4cc(C(F)(F)F)ccc4F)cc3)cc2s1.Cl [GW693917A]
Output: 68

Input: Query Percent Control on INSR for COc1cc2ncn(-c3cc(O[C@H](C)c4ccccc4Cl)c(C(N)=O)s3)c2cc1OC [GSK237701A]
Output: 100
